System: DeltatarO mutant
test_description: S. aureus survival, RN4220 and DeltatarO strains – OD600, teichoic acid synthesis inhibitors, primary screen (AID 463173)
condition_context: S. aureus RN4220 wild type/DeltatarO growth, OD600, 18 h, hits give low values, screened at 18.75 µg/mL (by protocol)
Screen size: about 52,000 compounds; about 4,300 (8.3%) were called active. The sample holds actives, similar compounds and a random draw of the others, so the mix is not that of the screen.
recorded_endpoint: survival (%)

>>> result_value("CC1=C(C(=O)Nc2ccccc2Cl)C(c2cccs2)n2ncnc2N1 (stereo not given)")
101
>>> result_value("Cc1ccc(C)c(NC(=O)CN2CCN(C3CCCCC3)C(=O)C2=O)c1")
94
>>> result_value("CCS(=O)(=O)N1CCN(S(=O)(=O)c2ccc(Cl)cc2)CC1")
88
>>> result_value("CCNC(=O)C1CCN(S(=O)(=O)c2ccc3c(c2)CCCN3C(C)=O)CC1")
99
>>> result_value("COc1ccc(CN2CCN(S(=O)(=O)c3ccc(NC(C)=O)cc3)CC2)c(OC)c1OC")
61
>>> result_value("CC1=C(C(=O)Nc2ccccc2C)C(c2ccc[nH]2)n2ncnc2N1 (stereo not given)")
102
>>> result_value("Cc1ccc(S(=O)(=O)N2CCN(S(=O)(=O)c3ccc(C)cc3)CC2)cc1")
96
>>> result_value("CC(=O)Nc1ccc(S(=O)(=O)N2CCN(Cc3ccccc3Cl)CC2)cc1")
62
>>> result_value("Cc1cc(C)c(/C=C/c2onc(C)c2S(=O)(=O)N2CCC(C(=O)NCc3ccco3)CC2)c(C)c1")
90
>>> result_value("Cc1ccc(S(=O)(=O)N2CCN(Cc3ccccc3Cl)CC2)cc1")
13

###

Tested on: DeltatarO mutant
test_description: S. aureus survival, RN4220 and DeltatarO strains – OD600, teichoic acid synthesis inhibitors, primary screen (AID 463173)
condition_context: S. aureus RN4220 wild type/DeltatarO growth, OD600, 18 h, hits give low values, screened at 18.75 µg/mL (by protocol)
About 4,300 (8.3%) of roughly 52,000 compounds were called active. The sample holds actives, similar compounds and a random draw of the others, so the mix is not that of the screen.
Each record is given 1 (yes) if its reported survival is strictly below 60%. Records at or above 60% are given 0 (no).

>>> qualitative_label("COc1ccccc1CNC(=O)c1cc2c(s1)-c1ccc(Cl)cc1SC2")
"0 (no)"
>>> qualitative_label("CN1C(=O)CC(=O)N(C)c2cc(S(=O)(=O)N(C)Cc3ccccc3)ccc21")
"1 (yes)"
>>> qualitative_label("CSc1nnc(NC(=O)c2cc(=O)c3cc(C)c(C)cc3o2)s1")
"1 (yes)"
>>> qualitative_label("Cc1ccc(-c2cn3cccc(C)c3n2)cc1NS(=O)(=O)c1ccccc1")
"1 (yes)"
>>> qualitative_label("COc1cccc(Cn2nnc3c(=O)[nH]c(C4CCN(C(=O)c5ccccc5Cl)CC4)nc32)c1")
"1 (yes)"
>>> qualitative_label("CCOC(=O)c1c(C)oc2c1cc(NS(=O)(=O)c1ccc(C)cc1)c1ccccc12")
"1 (yes)"
>>> qualitative_label("Clc1ccc(OCc2nc(-c3ccc(-n4cccc4)cc3)no2)cc1")
"0 (no)"
>>> qualitative_label("Cc1cccc(Cn2nnc3c(=O)[nH]c(C4CCN(C(=O)c5ccccc5F)CC4)nc32)c1")
"1 (yes)"
>>> qualitative_label("COc1ccc(S(=O)(=O)c2cn(CC(=O)Nc3cc(C)ccc3C)c3ccccc3c2=O)cc1")
"0 (no)"
>>> qualitative_label("COc1ccc(S(=O)(=O)Nc2cc(-c3cn4ccc(C)cc4n3)ccc2C)cc1OC")
"0 (no)"
>>> qualitative_label("O=C(Oc1ccccc1Cl)c1cc(-c2ccc3c(c2)OCCO3)on1")
"1 (yes)"
>>> qualitative_label("COc1ccc(OC)c(S(=O)(=O)Nc2cc3c(C(C)=O)c(C)oc3c3ccccc23)c1")
"1 (yes)"
>>> qualitative_label("CCOC(=O)c1c(C)oc2nc(C)nc(NCCc3ccc(SC)cc3)c12")
"0 (no)"
>>> qualitative_label("Cc1ccc(S(=O)(=O)Nc2cccc(-c3cn4cccc(C)c4n3)c2)c(C)c1")
"0 (no)"
>>> qualitative_label("CCSc1nnc(NC(=O)c2cc(=O)c3cc(C)ccc3o2)s1")
"0 (no)"
>>> qualitative_label("COc1ccc(S(=O)(=O)Nc2cc3c(C(=O)OC(C)C)c(C)oc3c3ccccc23)cc1")
"1 (yes)"
>>> qualitative_label("CCSc1nnc(NC(=O)c2cc(=O)c3cc(C)c(C)cc3o2)s1")
"1 (yes)"
>>> qualitative_label("CC(=O)c1cccc(NC(=O)C(C)n2c(=O)cc(-c3ccccc3)c3c(C)nn(C)c32)c1 (configuration not stated)")
"0 (no)"
>>> qualitative_label("CCn1c(CNC(=O)c2ccc(OC)cc2)nnc1SCC(=O)Nc1ccc(F)cc1")
"0 (no)"
>>> qualitative_label("Cc1cc(S(=O)(=O)N(C)Cc2ccccc2)ccc1-n1cnnn1")
"0 (no)"
>>> qualitative_label("O=C(Nc1ccccc1C(F)(F)F)c1cc(-c2ccc3c(c2)OCCO3)on1")
"0 (no)"
>>> qualitative_label("CCCc1cc(=O)[nH]c2nnc(SCCC(C)C)n12")
"0 (no)"
>>> qualitative_label("Cc1ccn2cc(-c3ccc(C)c(NS(=O)(=O)c4ccc(Cl)cc4)c3)nc2c1")
"1 (yes)"
>>> qualitative_label("O=C(c1ccccc1F)N1CCC(c2nc3c(nnn3Cc3cccc(F)c3)c(=O)[nH]2)CC1")
"1 (yes)"
>>> qualitative_label("O=C(Nc1ccc(Cl)cc1Cl)c1cc(S(=O)(=O)N2CCN(c3ccccc3F)CC2)ccc1F")
"0 (no)"
>>> qualitative_label("CCOc1ccc(CNC(=O)c2cc3ccccn3n2)cc1OC")
"0 (no)"
>>> qualitative_label("CCOc1ccc(NC(=O)Cn2c(=O)n(Cc3ccco3)c(=O)c3ccc(C(=O)NC4CCCC4)cc32)cc1")
"0 (no)"
>>> qualitative_label("CCN1C(=O)/C(=C2\\C=Cc3ccccc3N2CC)SC1=S")
"0 (no)"
>>> qualitative_label("Cc1ccc(NC(=O)C(=O)c2cc(C)n(-c3ccc(F)cc3)c2C)cc1C")
"0 (no)"
>>> qualitative_label("CCCN(C(=O)Nc1cn(CC(C)C)c(=O)c2ccccc12)c1ccc(F)cc1")
"0 (no)"
>>> qualitative_label("CN(C)c1cccc(C(=O)Nc2ccc(-c3nc4ccccc4s3)cc2)c1")
"0 (no)"
>>> qualitative_label("COc1ccc(S(=O)(=O)Nc2ccc(-c3cn4ccsc4n3)cc2)cc1C")
"0 (no)"
>>> qualitative_label("CC(C)Cn1c(=O)c2ccccc2n2c(CCC(=O)Nc3cccc(Cl)c3)nnc12")
"0 (no)"
>>> qualitative_label("Cc1cccc(Cn2nnc3c(=O)[nH]c(C4CCN(C(=O)c5ccc(F)cc5)CC4)nc32)c1")
"1 (yes)"
>>> qualitative_label("COc1ccc(Nc2nc3ccc(C)cc3nc2-n2nc(C)cc2C)cc1Cl")
"0 (no)"
>>> qualitative_label("COc1cccc(Cn2nnc3c(=O)[nH]c(C4CCCN(C(=O)c5ccccc5Cl)C4)nc32)c1 (configuration not stated)")
"0 (no)"
>>> qualitative_label("NC(=O)CN1C(=O)C(O)(CC(=O)/C=C\\c2ccccc2)c2ccccc21 (configuration not stated)")
"0 (no)"
>>> qualitative_label("CCCc1cc(=O)[nH]c(SCc2nc(-c3ccc(C)cc3)no2)n1")
"0 (no)"
>>> qualitative_label("COc1ccc(Cl)cc1C(=O)N1CCCC1")
"0 (no)"
>>> qualitative_label("CCCc1cc(=O)[nH]c(SCc2nc(-c3ccccc3)no2)n1")
"1 (yes)"
>>> qualitative_label("CCOCCc1nn2c(=O)cc(COC(=O)C(CC)c3ccccc3)nc2s1 (configuration not stated)")
"1 (yes)"
